tested.on: Neuropeptide Y receptor type 5 (Homo sapiens)
procedure.summary: Displacement of [125]PYY from human chimeric NPY Y5 receptor expressed in CHOK1 cells
measurement.setup: cho-k1
pKi: −log10 of the molar value.
Note to self: values exactly at 7 are class 1. So pKi at or above 7 is class 1, below is class 0.

Use the examples below as a reference point.
Cc1cccc(N2CCC(NC(=O)N(C)C3CCN(S(C)(=O)=O)CC3)CC2)c1    class 1
CCS(=O)(=O)N1CCC(N(C)C(=O)N[C@H]2CC[C@H](c3cc(F)cc(F)c3)CC2)CC1    class 1
CCC(=O)N1CCC(N(C)C(=O)NC2CCN(c3cc(F)cc(F)c3)CC2)CC1    class 1

Consider the additional molecule presented here.
Quick check, pKi >= 7? CC(=O)N1CCC(N(C)C(=O)N[C@H]2CC[C@@H](c3ccccc3)CC2)CC1
class 0

====

tested.on: Neuropeptide Y receptor type 5 (Homo sapiens)
procedure.summary: Displacement of [125]PYY from human chimeric NPY Y5 receptor expressed in CHOK1 cells
measurement.setup: cho-k1
// reported Ki per item
Your answer should be a plain number; it is taken to be in nM.

As a guide, the following entries are already answered.
CN(C(=O)NC1CCN(c2ccc(F)c(F)c2)CC1)C1CCN(S(C)(=O)=O)CC1    312
CC(C)S(=O)(=O)N1CCC(N(C)C(=O)NC2CCN(c3cc(F)cc(F)c3)CC2)CC1    3.2
CCS(=O)(=O)N1CCC(N(C)C(=O)NC2CCN(c3cc(F)cc(F)c3)CC2)CC1    2.8

Lab note: next compound to report on.
Can you share its Ki? I mean this compound: CN(C(=O)NC1CCN(c2ccccc2)CC1)C1CCN(S(C)(=O)=O)CC1
303

====

tested.on: Neuropeptide Y receptor type 5 (Homo sapiens, UniProt Q15761)
Sequence (Q15761 whole entry, looked up): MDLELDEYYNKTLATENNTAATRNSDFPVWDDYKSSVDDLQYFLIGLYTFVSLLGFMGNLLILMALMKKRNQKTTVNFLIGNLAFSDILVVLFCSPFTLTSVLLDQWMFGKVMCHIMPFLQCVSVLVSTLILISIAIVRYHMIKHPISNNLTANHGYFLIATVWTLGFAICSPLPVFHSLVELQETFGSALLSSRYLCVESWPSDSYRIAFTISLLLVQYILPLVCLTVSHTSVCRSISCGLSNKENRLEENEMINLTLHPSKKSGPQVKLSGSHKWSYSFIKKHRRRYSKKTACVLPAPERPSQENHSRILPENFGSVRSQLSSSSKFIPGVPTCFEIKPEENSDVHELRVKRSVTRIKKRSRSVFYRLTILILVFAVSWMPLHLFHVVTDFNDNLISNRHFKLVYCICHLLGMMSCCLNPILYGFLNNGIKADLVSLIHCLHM
procedure.summary: Displacement of [125]PYY from human chimeric NPY Y5 receptor expressed in CHOK1 cells
measurement.setup: cho-k1
Range-based classes on measured Ki: group A: < 2 nM; group B: ≥ 2 nM and < 3 nM; group C: ≥ 3 nM

Use the examples below as a reference point.
CCCS(=O)(=O)N1CCC(N(C)C(=O)NC2CCN(c3cc(F)cc(F)c3)CC2)CC1    group C
CN(C(=O)NC1CCN(c2cccc(Br)c2)CC1)C1CCN(S(C)(=O)=O)CC1    group C
CC(C)C(=O)N1CCC(N(C)C(=O)NC2CCN(c3cc(F)cc(F)c3)CC2)CC1    group B
CCCC(=O)N1CCC(N(C)C(=O)N[C@H]2CC[C@H](c3cc(F)cc(F)c3)CC2)CC1 (stereo in doubt; 21h)    group B
CCC(=O)N1CCC(N(C)C(=O)N[C@H]2CC[C@H](c3cc(F)cc(F)c3)CC2)CC1    group A

Hey, which category is CC(=O)N1CCC(N(C)C(=O)N[C@H]2CC[C@H](c3ccccc3)CC2)CC1 in, do you know?
group C

Hey, which category is CN(C(=O)N[C@H]1CC[C@H](c2cc(F)cc(F)c2)CC1)C1CCN(S(C)(=O)=O)CC1 in, do you know?
group A

Hey, which category is CN(C(=O)NC1CCN(c2cc(F)cc(F)c2)CC1)C1CCN(S(C)(=O)=O)CC1 in, do you know?
group C

====

procedure.summary: Bioavailability in Beagle dog
Type: ADME, organism-based, Canis lupus familiaris
measurement.setup: in vivo
recorded.endpoint: bioavailability

Can you share its bioavailability? I mean this molecule: CC(=O)N1CCC(N(C)C(=O)N[C@H]2CC[C@H](c3cc(F)cc(F)c3)CC2)CC1
94%

====

tested.on: UniProtKB P49146
Sequence (P49146 whole entry): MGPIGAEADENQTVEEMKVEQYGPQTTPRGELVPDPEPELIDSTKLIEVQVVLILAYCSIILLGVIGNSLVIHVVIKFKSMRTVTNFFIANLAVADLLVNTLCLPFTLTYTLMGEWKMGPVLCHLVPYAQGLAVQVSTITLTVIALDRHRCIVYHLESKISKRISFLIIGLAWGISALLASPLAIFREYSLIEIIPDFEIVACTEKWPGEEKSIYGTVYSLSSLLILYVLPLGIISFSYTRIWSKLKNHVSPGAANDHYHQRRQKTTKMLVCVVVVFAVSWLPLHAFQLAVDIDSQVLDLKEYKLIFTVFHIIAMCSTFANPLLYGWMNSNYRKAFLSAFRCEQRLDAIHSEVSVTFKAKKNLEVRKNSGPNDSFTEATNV
pKi: −log10 of the molar value.
recorded.endpoint: pKi

Give pKi (UniProtKB P49146) of the following compound: CC(=O)N1CCC(N(C)C(=O)N[C@H]2CC[C@H](c3cc(F)cc(F)c3)CC2)CC1
< 5.00

====

procedure.summary: Half life in iv dosed rat
Assay type: ADME, organism-based
measurement.setup: in vivo
recorded.endpoint: half-life (h)
Your answer should be a plain number; it is taken to be in h.

Can you share its half-life? I mean this compound: CC(=O)N1CCC(N(C)C(=O)N[C@H]2CC[C@H](c3cc(F)cc(F)c3)CC2)CC1
1.4

====

// reported pKi per item
tested.on: Neuropeptide Y receptor type 5 (Homo sapiens, UniProt Q15761)
procedure.summary: Displacement of [125]PYY from human chimeric NPY Y5 receptor expressed in CHOK1 cells
measurement.setup: cho-k1
pKi here is simply -log10 of the concentration when that concentration is written in mol/L.

As a guide, the following entries are already answered.
COc1cccc(N2CCC(NC(=O)N(C)C3CCN(S(C)(=O)=O)CC3)CC2)c1    6.51
CN(C(=O)NC1CCN(c2ccc(Br)cc2)CC1)C1CCN(S(C)(=O)=O)CC1    6.09
CN(C(=O)NC1CCN(c2cc(Cl)cc(Cl)c2)CC1)C1CCN(S(C)(=O)=O)CC1    8.96
CN(C(=O)NC1CCN(c2cccc(C#N)c2)CC1)C1CCN(S(C)(=O)=O)CC1    7.57

Give pKi (Neuropeptide Y receptor type 5 (Homo sapiens, UniProt Q15761)) of the following compound: CC(=O)N1CCC(N(C)C(=O)N[C@H]2CC[C@H](c3cc(F)cc(F)c3)CC2)CC1
8.74

====

procedure.summary: Ratio of drug level in brain to plasma in po dosed rat
Type: ADME, organism-based
measurement.setup: read-out: BPR
recorded.endpoint: Kp
No unit in the answer, please; the number alone is enough.

Can you share its Kp? I mean this compound: CC(=O)N1CCC(N(C)C(=O)N[C@H]2CC[C@H](c3cc(F)cc(F)c3)CC2)CC1
0.3

====

tested.on: Neuropeptide Y receptor type 5 (Homo sapiens, UniProt Q15761)
procedure.summary: Displacement of [125]PYY from human chimeric NPY Y5 receptor expressed in CHOK1 cells
measurement.setup: cho-k1
# label = T if Ki < 50 nM else F

Use the examples below as a reference point.
CN(C(=O)NC1CCN(c2ccc(Cl)c(Cl)c2)CC1)C1CCN(S(C)(=O)=O)CC1    T
CN(C(=O)NC1CCN(c2cccc(F)c2)CC1)C1CCN(S(C)(=O)=O)CC1    T
CN(C(=O)NC1CCN(c2ccc(F)cc2)CC1)C1CCN(S(C)(=O)=O)CC1    F
CN(C(=O)NC1CCN(c2ccc(Cl)cc2)CC1)C1CCN(S(C)(=O)=O)CC1    F

Consider the additional compound presented here.
Ki strictly < 50 nM for this compound? CC(=O)N1CCC(N(C)C(=O)NC2CCN(c3cc(F)cc(F)c3)CC2)CC1
T

====

tested.on: Neuropeptide Y receptor type 5 (Homo sapiens)
procedure.summary: Displacement of [125]PYY from human chimeric NPY Y5 receptor expressed in CHOK1 cells
measurement.setup: cho-k1
pKi: −log10 of the molar value.
Note to self: values exactly at 7 are yes. So pKi at or above 7 is yes, below is no.

Quick check, pKi >= 7? CN(C(=O)NC1CCN(c2cccc(Cl)c2)CC1)C1CCN(S(C)(=O)=O)CC1
yes

Quick check, pKi >= 7? Cc1ccccc1N1CCC(NC(=O)N(C)C2CCN(S(C)(=O)=O)CC2)CC1
yes

Quick check, pKi >= 7? CN(C(=O)N[C@H]1CC[C@@H](c2ccccc2)CC1)C1CCN(S(C)(=O)=O)CC1
no

====

tested.on: Neuropeptide Y receptor type 5 (Homo sapiens)
procedure.summary: Displacement of [125]PYY from human chimeric NPY Y5 receptor expressed in CHOK1 cells
measurement.setup: cho-k1
pKi: −log10 of the molar value.
Note to self: values exactly at 7 are True. So pKi at or above 7 is True, below is False.

Use the examples below as a reference point.
CCCC(=O)N1CCC(N(C)C(=O)NC2CCN(c3cc(F)cc(F)c3)CC2)CC1    True
CN(C(=O)NC1CCN(c2cccnc2)CC1)C1CCN(S(C)(=O)=O)CC1    False
CN(C(=O)Nc1ccc(-c2cc(F)cc(F)c2)cc1)C1CCN(S(C)(=O)=O)CC1    True

Consider the additional compound presented here.
Quick check, pKi >= 7? CN(C(=O)N[C@H]1CC[C@H](c2ccccc2)CC1)C1CCN(S(C)(=O)=O)CC1
True
